- Tested on: Mycobacterium smegmatis CCM 4622 (ATCC 607)
- testDescription: Antimycobacterial microdilution, M. smegmatis
- Format: cell-based
- runConditions: Mycolicibacterium smegmatis, Middlebrook 7H9 with OADC, resazurin; read-out: M. smeg. ATCC 607 MIC
Entries annotated with measured MIC
measuredParameter: MIC

compound=O=C(Nc1cncc(Cl)n1)c1ccc(Cl)cc1 experimentaltarget="Mycobacterium smegmatis CCM 4622 (ATCC 607)" measuredresult="≥ 500 µg/mL"
compound="CO[C@H]1/C=C/O[C@@]2(C)Oc3c(C)c(O)c4c(O)c(c(/C=N/N5CCN(C)CC5)c(O)c4c3C2=O)NC(=O)/C(C)=C\\C=C\\[C@H](C)[C@H](O)[C@@H](C)[C@@H](O)[C@@H](C)[C@H](OC(C)=O)[C@@H]1C [RFM, rifampicin, reference compound]" experimentaltarget="Mycobacterium smegmatis CCM 4622 (ATCC 607)" measuredresult="0.78 to 1.56 µg/mL"
compound=O=C(Nc1cnc(Cl)cn1)c1cccc(C(F)(F)F)c1 experimentaltarget="Mycobacterium smegmatis CCM 4622 (ATCC 607)" measuredresult="≥ 500 µg/mL"
compound="O=C(O)c1cn(C2CC2)c2cc(N3CCNCC3)c(F)cc2c1=O [CPX, ciprofloxacin, reference compound]" experimentaltarget="Mycobacterium smegmatis CCM 4622 (ATCC 607)" measuredresult="0.195 µg/mL"
compound=COc1cccc(C(=O)Nc2cncc(Cl)n2)c1 experimentaltarget="Mycobacterium smegmatis CCM 4622 (ATCC 607)" measuredresult="≥ 500 µg/mL"
compound=O=C(Nc1cncc(Cl)n1)c1ccccc1 experimentaltarget="Mycobacterium smegmatis CCM 4622 (ATCC 607)" measuredresult="≥ 500 µg/mL"
compound=O=C(Nc1cncc(Cl)n1)c1cccc(C(F)(F)F)c1 experimentaltarget="Mycobacterium smegmatis CCM 4622 (ATCC 607)" measuredresult="125 µg/mL"
compound=CCc1ccc(C(=O)Nc2cncc(Cl)n2)cc1 experimentaltarget="Mycobacterium smegmatis CCM 4622 (ATCC 607)" measuredresult="≥ 500 µg/mL"
compound=COc1ccc(C(=O)Nc2cncc(Cl)n2)cc1 experimentaltarget="Mycobacterium smegmatis CCM 4622 (ATCC 607)" measuredresult="≥ 500 µg/mL"
compound=Cc1ccc(C(=O)Nc2cncc(Cl)n2)cc1 experimentaltarget="Mycobacterium smegmatis CCM 4622 (ATCC 607)" measuredresult="≥ 500 µg/mL"

* * *

- Test system: M. kansasii CNCTC My 235/80 (ATCC 12478)
- testDescription: Antimycobacterial microdilution MABA, M. kansasii
- Assay type: cell-based, Mycobacterium kansasii
- runConditions: Middlebrook 7H9 with OADC, pH 6.6, MABA
Marks after values point to notes of the source that are not given here.
measuredParameter: M. kans. ATCC 12478 MIC

compound="Cc1ccc(C(=O)Nc2cnc(Cl)cn2)cc1 [Compound 2h]" measuredparameter="M. kans. ATCC 12478 MIC" measuredresult=">100 µg/mL"
compound="NNC(=O)c1ccncc1 [INH, isoniazid, reference compound]" measuredparameter="M. kans. ATCC 12478 MIC" measuredresult="6.25 to 12.5 µg/mL"
compound="COc1cccc(C(=O)Nc2cncc(Cl)n2)c1 [Compound 3f]" measuredparameter="M. kans. ATCC 12478 MIC" measuredresult="100 ^c µg/mL"
compound="O=C(Nc1cnccn1)c1ccccc1 [Compound 1a]" measuredparameter="M. kans. ATCC 12478 MIC" measuredresult=">100 µg/mL"
compound="CCc1ccc(C(=O)Nc2cnc(Cl)cn2)cc1 [Compound 2i]" measuredparameter="M. kans. ATCC 12478 MIC" measuredresult=">100 µg/mL"
compound="CC(=O)Oc1cccc(C(=O)Nc2cnc(Cl)cn2)c1 [Compound 2c-Ac]" measuredparameter="M. kans. ATCC 12478 MIC" measuredresult=">100 µg/mL"
compound="O=C(Nc1cncc(Cl)n1)c1ccccc1O [Compound 3b]" measuredparameter="M. kans. ATCC 12478 MIC" measuredresult="> 100 µg/mL"
compound="O=C(Nc1cnc(Cl)cn1)c1cccc(C(F)(F)F)c1 [Compound 2n]" measuredparameter="M. kans. ATCC 12478 MIC" measuredresult=">100 µg/mL"
compound="CC(=O)Oc1ccc(C(=O)Nc2cnc(Cl)cn2)cc1 [Compound 2d-Ac]" measuredparameter="M. kans. ATCC 12478 MIC" measuredresult=">100 µg/mL"
compound="O=C(Nc1cnccn1)c1ccccc1Cl [Compound 1j]" measuredparameter="M. kans. ATCC 12478 MIC" measuredresult=">100 µg/mL"
compound="COc1ccc(C(=O)Nc2cnccn2)cc1 [Compound 1g]" measuredparameter="M. kans. ATCC 12478 MIC" measuredresult=">100 µg/mL"
compound="O=C(c1ccc(Cl)cc1)N(C(=O)c1ccc(Cl)cc1)c1cnccn1 [Compound 1l-SP]" measuredparameter="M. kans. ATCC 12478 MIC" measuredresult=">100 µg/mL"

* * *

- System: Aspergillus fumigatus 231
- testDescription: Antifungal microdilution broth, AF
- Type: cell-based
- runConditions: Aspergillus fumigatus, 231, 24 h, read-out: MIC AF
measuredParameter: MIC

smilesstr=O=C(Nc1cnc(Cl)cn1)c1ccc(O)cc1 measuredresult="> 500 µM"
smilesstr=O=C(Nc1cncc(Cl)n1)c1cccc(Cl)c1 measuredresult="> 125 µM"
smilesstr=COc1cccc(C(=O)Nc2cnccn2)c1 measuredresult="> 500 µM"
smilesstr=O=C(Nc1cnccn1)c1cccc(C(F)(F)F)c1 measuredresult="> 125 µM"
smilesstr=CC(=O)Oc1cccc(C(=O)Nc2cnccn2)c1 measuredresult="> 500 µM"
smilesstr=Cc1ccc(C(=O)Nc2cnccn2)cc1 measuredresult="> 500 µM"
smilesstr=COc1ccccc1C(=O)Nc1cnc(Cl)cn1 measuredresult="> 125 µM"
smilesstr=O=C(Nc1cnc(Cl)cn1)c1ccc(Cl)cc1 measuredresult="> 125 µM"
smilesstr=COc1ccccc1C(=O)Nc1cnccn1 measuredresult="> 500 µM"
smilesstr=O=C(c1ccc(Cl)cc1)N(C(=O)c1ccc(Cl)cc1)c1cnccn1 measuredresult="> 125 µM"
smilesstr=O=C(Nc1cnc(Cl)cn1)c1ccc(Br)cc1 measuredresult="> 125 µM"
smilesstr=COc1ccc(C(=O)Nc2cnccn2)cc1 measuredresult="> 500 µM"
smilesstr=O=C(Nc1cnccn1)c1ccccc1 measuredresult="> 500 µM"
smilesstr=COc1cccc(C(=O)Nc2cnc(Cl)cn2)c1 measuredresult="> 500 µM"
smilesstr=O=C(Nc1cnccn1)c1ccc(Cl)cc1 measuredresult="> 125 µM"
smilesstr=O=C(Nc1cnc(Cl)cn1)c1ccccc1 measuredresult="> 500 µM"
smilesstr=CC(=O)Oc1ccc(C(=O)Nc2cnccn2)cc1 measuredresult="> 500 µM"
smilesstr=O=C(Nc1cnc(Cl)cn1)c1cccc(O)c1 measuredresult="> 500 µM"
smilesstr=CC(=O)Oc1ccc(C(=O)Nc2cnc(Cl)cn2)cc1 measuredresult="> 125 µM"
smilesstr=CCc1ccc(C(=O)Nc2cnc(Cl)cn2)cc1 measuredresult="> 125 µM"
smilesstr=O=C(Nc1cnc(Cl)cn1)c1ccccc1O measuredresult="125 µM"
smilesstr=COc1ccccc1C(=O)Nc1cncc(Cl)n1 measuredresult="> 500 µM"
smilesstr=Cc1ccc(C(=O)Nc2cnc(Cl)cn2)cc1 measuredresult="> 125 µM"
smilesstr=O=C(Nc1cnc(Cl)cn1)c1cccc(Cl)c1 measuredresult="> 125 µM"
smilesstr=CC(=O)Oc1ccccc1C(=O)Nc1cnc(Cl)cn1 measuredresult="250 µM"
smilesstr=O=C(Nc1cnccn1)c1cccc(Cl)c1 measuredresult="> 125 µM"
smilesstr=O=C(Nc1cnccn1)c1ccccc1O measuredresult="> 500 µM"
smilesstr=O=C(Nc1cncc(Cl)n1)c1ccccc1Cl measuredresult="> 500 µM"
smilesstr=O=C(Nc1cnc(Cl)cn1)c1ccccc1Cl measuredresult="> 500 µM"
smilesstr=COc1ccc(C(=O)Nc2cnc(Cl)cn2)cc1 measuredresult="> 125 µM"
smilesstr=CCc1ccc(C(=O)Nc2cnccn2)cc1 measuredresult="> 500 µM"
smilesstr=O=C(Nc1cnccn1)c1cccc(O)c1 measuredresult="> 500 µM"
smilesstr=O=C(Nc1cnccn1)c1ccccc1Cl measuredresult="> 500 µM"
smilesstr=CC(=O)Oc1cccc(C(=O)Nc2cnc(Cl)cn2)c1 measuredresult="> 125 µM"

* * *

- System: Candida tropicalis 156
- testDescription: Antifungal microdilution broth, CT
- Type: cell-based
- runConditions: Candida tropicalis, 156, 24 h, read-out: MIC CT
measuredParameter: MIC

compound="CC(=O)Oc1cccc(C(=O)Nc2cnc(Cl)cn2)c1 [Compound 2c-Ac]" measuredparameter=MIC measuredresult="> 125 µM"
compound="O=C(Nc1cnccn1)c1cccc(C(F)(F)F)c1 [Compound 1n]" measuredparameter=MIC measuredresult="> 125 µM"
compound="COc1cccc(C(=O)Nc2cnc(Cl)cn2)c1 [Compound 2f]" measuredparameter=MIC measuredresult="> 500 µM"
compound="O=C(Nc1cnc(Cl)cn1)c1ccc(O)cc1 [Compound 2d]" measuredparameter=MIC measuredresult="> 500 µM"
compound="O=C(Nc1cnccn1)c1cccc(O)c1 [Compound 1c]" measuredparameter=MIC measuredresult="> 500 µM"
compound="COc1ccc(C(=O)Nc2cnc(Cl)cn2)cc1 [Compound 2g]" measuredparameter=MIC measuredresult="> 125 µM"

The measured values listed here are drawn from paper PMC6225228.
